Data provenance is patent US20240417469A1.

- TARGET_OR_SYSTEM: T1, recombinant CD3D&E protein (human CD3-his tag) (human, UniProt P04234 22-105; P07766 23-126, limits assumed)
- T1 construct: Analyte in Biacore; also called CD3D&E-His; CD3d&ε-His
- T1 sequence (P04234 22-105 limits assumed, chain 1 of 2): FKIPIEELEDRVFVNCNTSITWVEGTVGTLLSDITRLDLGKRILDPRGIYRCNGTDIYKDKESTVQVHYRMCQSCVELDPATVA
- T1 sequence (P07766 23-126 limits assumed, chain 2 of 2): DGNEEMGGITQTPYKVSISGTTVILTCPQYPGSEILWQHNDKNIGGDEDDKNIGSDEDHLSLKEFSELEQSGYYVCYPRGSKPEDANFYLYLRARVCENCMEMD
- PROTOCOL_NOTES: SPR Biacore, Ab captured on Protein A;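 also: humanized antibodies on a Protein A chip, human CD3-his analyte flowed over in serial dilutions for 3 min, dissociation tracked 120–360 s on a Biacore T200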
MEASUREMENT_KIND: Kd

- BINDER: "Hu155A9B1-17 (antibody, V domains shown, humanized mAb) VH: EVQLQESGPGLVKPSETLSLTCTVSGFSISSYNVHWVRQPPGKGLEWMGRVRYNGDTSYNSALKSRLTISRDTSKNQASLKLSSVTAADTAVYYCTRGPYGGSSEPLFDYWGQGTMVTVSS VL: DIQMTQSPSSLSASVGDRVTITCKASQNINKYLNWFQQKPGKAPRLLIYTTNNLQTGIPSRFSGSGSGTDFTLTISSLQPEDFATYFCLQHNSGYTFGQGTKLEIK"
  VALUE_OBSERVED: "43.6 nM"
- BINDER: "Hu192A7B9-21 (antibody, V domains shown, humanized mAb) VH: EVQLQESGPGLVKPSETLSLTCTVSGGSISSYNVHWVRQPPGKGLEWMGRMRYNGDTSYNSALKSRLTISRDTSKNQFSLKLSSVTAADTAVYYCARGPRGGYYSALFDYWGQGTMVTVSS VL: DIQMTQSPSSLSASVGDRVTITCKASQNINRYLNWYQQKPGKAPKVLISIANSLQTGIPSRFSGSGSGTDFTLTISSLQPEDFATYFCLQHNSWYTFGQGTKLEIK"
  VALUE_OBSERVED: "55.1 nM"
- BINDER: "Hu153A6B1-16 (antibody, V domains shown, humanized mAb) VH: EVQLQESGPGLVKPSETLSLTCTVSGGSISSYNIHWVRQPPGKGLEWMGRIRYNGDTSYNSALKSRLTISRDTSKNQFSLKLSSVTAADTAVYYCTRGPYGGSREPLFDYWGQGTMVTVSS VL: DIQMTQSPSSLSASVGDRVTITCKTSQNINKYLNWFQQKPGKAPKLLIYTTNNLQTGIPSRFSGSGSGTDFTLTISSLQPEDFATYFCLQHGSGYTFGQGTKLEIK"
  VALUE_OBSERVED: "61.9 nM"
